- System: HS 578T breast
- ASSAY SUMMARY: NCI-60 one-dose screen, 48 h (100 = growth as untreated, 0 = no growth, -100 = all killed)
- PROTOCOL CONDITIONS: 10 µM unless noted
Compounds without any hit were thinned out: in the full panel of roughly 83,000, 20% have a hit.
ATTRIBUTE MEASURED: growth (%)
All answers are understood in %, so give the number only.

Incoming: Check the records and state growth for Cn1ccnc1C(=O)/C=C/c1ccc(NC(=O)Nc2ccc(Cl)cc2)cc1
Outgoing: 77

Incoming: Recall and state the measured growth for Nc1cc(-c2c[nH]c3ccc(Cl)cc23)nc2cc(-c3c[nH]c4ccc(Cl)cc34)nn12 .
Outgoing: 74.3

Incoming: Provide only the value of recorded growth for N#Cc1nc(-c2ccccc2)oc1S(=O)(=O)N1CCN(CCc2ccccn2)CC1
Outgoing: 106

Incoming: Respond only with growth recorded for COc1ccc(C(=O)/C=C/c2ccc(Oc3nc(NCCO)nc(N4CCOCC4)n3)c(OC)c2)cc1
Outgoing: 78.1

Incoming: For the molecule CO/N=C1\CCc2c(sc(NC(=O)c3cccc(C(F)(F)F)c3)c2C(N)=O)C1 , give its reported growth.
Outgoing: 5.79

Incoming: Could you please provide reported growth for O=C(CSc1nnc(-c2ccc3nc(-c4ccc(Cl)cc4)[nH]c3c2)o1)Nc1ccc(C(=O)/C=C/c2ccc(Cl)cc2)cc1 ? Thanks!
Outgoing: 89

Incoming: Provide only the value of recorded growth for NS(=O)(=O)c1ccc(Nc2nc(SCC(=O)c3ccc(Cl)cc3)nc3ccccc23)cc1
Outgoing: 92.2

Incoming: Read the entry COc1cccc(N2CCN(c3ncnc4c3[nH]c3ccc(F)cc34)C[C@@H]2C)c1 and write its reported growth.
Outgoing: -18.7

Incoming: State its growth for this molecule: Nc1c(C(=O)Nc2ccc(Cl)cc2)sc2nc(-c3cnccn3)cc(-c3cccs3)c12
Outgoing: 47.1

Incoming: Indicate its recorded growth; the molecule in question is O=C(CCN1C(=O)/C(=C/c2ccccc2)SC1=S)N1CCOCC1
Outgoing: 100

Incoming: Dear colleague, please send me the reported growth for COc1ccc(CNS(=O)(=O)/N=C2\NC(=O)NC2=C(Cl)Cl)cc1 when you can.
Outgoing: 44

Incoming: Could you please provide reported growth for NS(=O)(=O)c1cccc(Nc2nc(SCC(=O)c3ccc(Br)cc3)nc3ccccc23)c1 ? Thanks!
Outgoing: 59.6

Incoming: Tell me measured growth for COC(=O)C(C)NS(=O)(=O)/N=C1\NC(=O)NC1=C(Cl)Cl (centres undefined) please.
Outgoing: 107

Incoming: Query growth for Cc1[nH]nc2ncc(C#Cc3cncc(C(=O)Nc4ccc(CN5CCN(C)CC5)c(C(F)(F)F)c4)c3)cc12
Outgoing: 9.15

Incoming: Report growth, nothing else, for this molecule: Cn1ccnc1C(=O)/C=C/c1ccc(NC(=O)Nc2ccccc2)cc1
Outgoing: 5.48

Incoming: Please give measured growth of the following entry: COc1cc(/C=C/C(=O)c2ccc(Cl)cc2)ccc1Oc1nc(NCCO)nc(N2CCOCC2)n1
Outgoing: 84

Incoming: Look up and report measured growth for this entry: O=C1Nc2ccc(Cl)cc2/C1=C/c1ccc(OCC(=O)c2ccc(Br)cc2)cc1
Outgoing: 89.3

Incoming: Indicate its recorded growth; the molecule in question is Nc1c(C(=O)Nc2ccc(C(F)(F)F)cc2)sc2nc(-c3cnccn3)cc(-c3cccs3)c12
Outgoing: 70.3

Incoming: Give growth for the following molecule: C#Cc1nc(C2=C(C)C(=O)/C(=N/OC(C)=O)C2)cs1
Outgoing: 90.7

Incoming: Give growth for COc1cc(-c2nc3ccc(-c4nnc(SCC(=O)Nc5ccc(C(C)=O)cc5)o4)cc3[nH]2)cc(OC)c1OC
Outgoing: 103

Incoming: Please supply the value of reported growth for the item CN(C)CCCOc1c2ccc(Cl)cc2nc2c1oc1ccccc12
Outgoing: 5.22

Incoming: State its growth: C[C@@H]1CN(c2ccc3ncc(C#Cc4cncc(C(=O)Nc5ccc(CN6CCN(C)CC6)c(C(F)(F)F)c5)c4)n3n2)C[C@H](C)O1
Outgoing: -37

Incoming: Look up and report measured growth for this entry: NC(=O)c1c(NC(=O)c2ccc(C3CCCCC3)cc2)sc2c1CCC(=O)C2
Outgoing: 35.4

Incoming: Entry C#Cc1nc(C2=C(C)C(=N\O)/C(=N/O)C2)cs1 needs its growth filled in; supply it.
Outgoing: 86.7

Incoming: Supply recorded growth for Cc1sc2c(c1C)c(=O)nc1c(-c3nc(-c4ccc(F)cc4)no3)n[nH]n12 here.
Outgoing: 105

Incoming: Please indicate growth recorded for Cc1cc2nc3c4cc(Cl)ccc4n(CC(=O)NCCN(C)C)c3nc2cc1C
Outgoing: 71.9

Incoming: Could you please provide reported growth for N/C(=N\c1nc2c(Cl)cc(Cl)cc2s1)C(Cl)(Cl)Cl ? Thanks!
Outgoing: 22.1

Incoming: Answer with reported growth of N/C(=N\c1nc2c(Br)cccc2s1)C(Br)Br
Outgoing: 6.83

Incoming: For the molecule COc1cc(/C=C/C(=O)c2ccc(C)cc2)ccc1Oc1nc(NCCO)nc(N2CCOCC2)n1 , report growth.
Outgoing: 79.9

Incoming: Input COc1cc(OC)c(C2SCC(=O)N2Nc2ncnc3ccccc23)cc1OC (centres undefined) , output reported growth.
Outgoing: 112

Incoming: Read the entry CCOC(=O)c1c(Nc2ccccc2)nn2c(N)c(C#N)c(-c3ccc(Cl)cc3)nc12 and write its reported growth.
Outgoing: 33.8

Incoming: Specify reported growth for the molecule shown: C#Cc1nc(C2=C(C)C(OC(C)=O)/C(=N/OC(C)=O)C2)cs1 (centres undefined)
Outgoing: 4.76

Incoming: Write down growth measured for item CN1CCc2c(sc3ncnc(N/N=C/c4ccc(Cl)c(Cl)c4)c23)C1
Outgoing: 78.5

Incoming: Give growth for Nc1nc(N)c2c(n1)NC(c1ccc(F)cc1)CC(c1ccc(Nc3nc(NCCO)nc(Nc4ccc(Cl)cc4)n3)cc1)=N2 (centres undefined)
Outgoing: 42.8

Incoming: Specify measured growth for CC(=O)Oc1ccccc1C(=O)Nc1cc(C(C)C)ccc1C .
Outgoing: 19.7

Incoming: Using known records, supply growth for CC1=C(C)C(=O)C(Nc2ccccc2)=C(Cl)C1=O
Outgoing: 101

Incoming: Dear colleague, please send me the reported growth for Fc1ccc(-c2nc(C(Cl)Cl)nc3cc(-c4ccccc4)nn23)cc1 when you can.
Outgoing: -7.41

Incoming: Read the entry Cc1cc(=O)oc2cc(OCCCOc3ccc(/C=C/C(=O)Nc4ccc(Cl)cc4)cc3)ccc12 and write its reported growth.
Outgoing: 46.2

Incoming: Give the reported value of growth for this record: CCOC(=O)c1c(Nc2ccccc2)nn2c(N)c(C#N)c(-c3ccccc3)nc12
Outgoing: 75.2

Source: PubChem BioAssay (NCI)
